Exercise: for every item that follows, state its recorded Kd.
Biological target: T1, GST-KIAA0807(S) PDZ domain 1 (Homo sapiens (Human)), Q6P0Q8
T1 chain: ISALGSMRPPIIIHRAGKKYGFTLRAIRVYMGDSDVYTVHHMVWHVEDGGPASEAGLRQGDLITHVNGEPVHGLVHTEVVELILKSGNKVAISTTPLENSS
Test: G assay titration, PDZ 0.5 ug/ml
Give bare numbers, in nM.

Record KENDYESISDLQQGRDITRL (modifications not checked) [PAG] . Reported Kd: 350

# map each binder to its Kd
1. DSDPENEPFDEDQHTQITKV (modifications not checked) [PTEN]
2. QPTPTLGLNLGNDPDRGTSI (modifications not checked) [GluR delta-2]

[300, 4000]

All figures here come from patent US20050282743A1.
